Reported Cell viability (% of control) values for the following molecules.
System: Raw 264.7 mouse macrophages
Test: Cell viability of LPS-treated Raw 264.7 macrophages
Assay type: cell-based
Conditions: LPS-treated Raw 264.7 cells, 24 hours; test concentration not given

Worked examples follow.
- molecule: "[O-][S+](c1ccc(F)cc1F)c1nccc2ccccc12 (stereo not drawn)"
  assayTarget: "Raw 264.7 mouse macrophages"
  valueReported: "103 % of control"
- molecule: "O=S(=O)(c1ccc(F)cc1)c1nccc2ccccc12 [Comparative Example 2, reference compound]"
  assayTarget: "Raw 264.7 mouse macrophages"
  valueReported: "73 % of control"
- molecule: "[O-][S+](c1ccc(C(F)(F)F)cc1)c1nccc2ccccc12 (stereo not drawn)"
  assayTarget: "Raw 264.7 mouse macrophages"
  valueReported: "101 % of control"
- molecule: "[O-][S+](c1ccc(Cl)cc1)c1nccc2ccccc12 (stereo not drawn)"
  assayTarget: "Raw 264.7 mouse macrophages"
  valueReported: "96 % of control"

Quick check: Cell viability (% of control) of [O-][S+](c1ccc(F)cc1)c1nccc2ccccc12 (stereo not drawn) ? 90 % of control

// query Cell viability (% of control) value for entry [O-][S+](c1ccc(F)cc1)c1ccnc2ccccc12 (stereo not drawn) 100 % of control
